src = the kinase profiling compilation of Christmann-Franck et al. (2016)

residual activity reference
Target: GCK (human) (UniProt Q12851)
Sequence (Q12851 whole entry, looked up): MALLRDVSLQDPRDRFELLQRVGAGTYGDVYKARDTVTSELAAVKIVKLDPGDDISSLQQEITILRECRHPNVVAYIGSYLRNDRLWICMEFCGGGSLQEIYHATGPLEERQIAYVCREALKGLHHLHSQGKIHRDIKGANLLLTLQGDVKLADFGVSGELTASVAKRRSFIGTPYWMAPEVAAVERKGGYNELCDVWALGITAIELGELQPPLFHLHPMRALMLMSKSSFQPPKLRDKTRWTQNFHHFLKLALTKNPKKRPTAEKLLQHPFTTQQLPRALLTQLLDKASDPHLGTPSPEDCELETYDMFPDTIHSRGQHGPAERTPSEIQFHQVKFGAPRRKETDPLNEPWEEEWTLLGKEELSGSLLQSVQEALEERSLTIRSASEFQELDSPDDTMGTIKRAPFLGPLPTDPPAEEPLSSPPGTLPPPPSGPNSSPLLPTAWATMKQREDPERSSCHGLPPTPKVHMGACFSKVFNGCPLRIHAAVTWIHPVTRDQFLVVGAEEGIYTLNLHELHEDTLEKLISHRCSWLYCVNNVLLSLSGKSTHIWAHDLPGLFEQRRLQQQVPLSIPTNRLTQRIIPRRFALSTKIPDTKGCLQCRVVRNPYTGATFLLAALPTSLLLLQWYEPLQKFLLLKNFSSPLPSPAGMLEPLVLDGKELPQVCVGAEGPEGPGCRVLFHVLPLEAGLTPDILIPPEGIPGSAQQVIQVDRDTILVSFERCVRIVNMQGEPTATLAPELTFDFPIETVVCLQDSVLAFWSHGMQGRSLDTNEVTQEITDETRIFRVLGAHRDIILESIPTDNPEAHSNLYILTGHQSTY
Experiment: radiometric filter-binding kinase assay
Conditions: compound 10.0 µM

| compound | subject-of-test | residual activity, % |
| --- | --- | --- |
| FC(F)(F)c1ccc(-c2ccc(Oc3cncc4sc(-c5nn[nH]n5)cc34)cc2)cc1 | GCK (human) (UniProt Q12851) | 17 |
| O=C(O)c1cc(N=Nc2ccc(S(=O)(=O)Nc3ccccn3)cc2)ccc1O | GCK (human) (UniProt Q12851) | 96 |
| CCOC(=O)c1ccc(N2NC(=O)/C(=C/c3ccc([N+](=O)[O-])o3)C2=O)cc1 | GCK (human) (UniProt Q12851) | 96 |
| Cc1ccc(=O)n(-c2ccccc2)c1 | GCK (human) (UniProt Q12851) | 108 |
| Cc1ccc(-c2ccc3c(ccc4sc5c(c43)NC[C@@H](C)NC5=O)n2)cn1 | GCK (human) (UniProt Q12851) | 19 |
| CCn1c(-c2nonc2N)nc2cncc(CNC3CCNCC3)c21 | GCK (human) (UniProt Q12851) | 71 |
| CC(C)(C#N)c1ccc(N2C(=O)OCc3cnc4ccc(-c5cnc6ccccc6c5)cc4c32)cc1 | GCK (human) (UniProt Q12851) | 11 |
| O=C(N[C@@H](COc1ccc2[nH]c(=O)[nH]c2c1)c1ccccc1)c1cccn(Cc2ccc(F)c(F)c2)c1=O | GCK (human) (UniProt Q12851) | 94 |
| O=C(NOCC(O)CO)c1ccc(F)c(F)c1Nc1ccc(I)cc1Cl (configuration not stated) | GCK (human) (UniProt Q12851) | 91 |
| CCCC(CCC)C(=O)O | GCK (human) (UniProt Q12851) | 87 |
| N#Cc1c(C2CCNCC2)cc(-c2c(O)cccc2OCC2CC2)nc1N | GCK (human) (UniProt Q12851) | 41 |
| Cc1ccc(Sc2cnc(Nc3cccc(Br)n3)s2)cc1C(=O)N1CCN(C(=O)CN)CC1 | GCK (human) (UniProt Q12851) | 33 |
| C=CC(=O)N1CCC[C@@H](n2nc(-c3ccc(Oc4ccccc4)cc3)c3c(N)ncnc32)C1 | GCK (human) (UniProt Q12851) | 38 |
| NC(=O)c1cc2c(-c3cccc(-c4ccccc4)c3)cnc(N)c2s1 | GCK (human) (UniProt Q12851) | 5 |
| O=S(=O)(c1ccc(F)c2nonc12)N1CCN(c2ncc(C(F)(F)F)cc2Cl)CC1 | GCK (human) (UniProt Q12851) | 80 |
| NC(=O)c1cc(-c2ccnc(NC3CCCCC3)c2)nc(N2CCNCC2)c1 | GCK (human) (UniProt Q12851) | 44 |
| Oc1ccc(/C=C/c2cc(O)cc(O)c2)cc1 | GCK (human) (UniProt Q12851) | 73 |
| Cc1nc(-c2ccc(OCC(C)C)c(C#N)c2)sc1C(=O)O | GCK (human) (UniProt Q12851) | 86 |
| Cc1ccc2c(c1)C(=O)[C@@]1(O)CCN(c3ccccc3)C1=N2 | GCK (human) (UniProt Q12851) | 97 |
| COc1cc2ncn(-c3cc(OCc4ccccc4S(C)(=O)=O)c(C#N)s3)c2cc1OC | GCK (human) (UniProt Q12851) | 8 |
| c1ccc2c(-c3cnn4cc(-c5ccc(N6CCNCC6)cc5)cnc34)ccnc2c1 | GCK (human) (UniProt Q12851) | 3 |
| NC(=O)c1ccc(-c2ccc(Oc3cncc4sc(-c5nn[nH]n5)cc34)cc2)cc1 | GCK (human) (UniProt Q12851) | 13 |

---

Target: MAP3K11 (human) (UniProt Q16584)
Sequence (Q16584 whole entry, looked up): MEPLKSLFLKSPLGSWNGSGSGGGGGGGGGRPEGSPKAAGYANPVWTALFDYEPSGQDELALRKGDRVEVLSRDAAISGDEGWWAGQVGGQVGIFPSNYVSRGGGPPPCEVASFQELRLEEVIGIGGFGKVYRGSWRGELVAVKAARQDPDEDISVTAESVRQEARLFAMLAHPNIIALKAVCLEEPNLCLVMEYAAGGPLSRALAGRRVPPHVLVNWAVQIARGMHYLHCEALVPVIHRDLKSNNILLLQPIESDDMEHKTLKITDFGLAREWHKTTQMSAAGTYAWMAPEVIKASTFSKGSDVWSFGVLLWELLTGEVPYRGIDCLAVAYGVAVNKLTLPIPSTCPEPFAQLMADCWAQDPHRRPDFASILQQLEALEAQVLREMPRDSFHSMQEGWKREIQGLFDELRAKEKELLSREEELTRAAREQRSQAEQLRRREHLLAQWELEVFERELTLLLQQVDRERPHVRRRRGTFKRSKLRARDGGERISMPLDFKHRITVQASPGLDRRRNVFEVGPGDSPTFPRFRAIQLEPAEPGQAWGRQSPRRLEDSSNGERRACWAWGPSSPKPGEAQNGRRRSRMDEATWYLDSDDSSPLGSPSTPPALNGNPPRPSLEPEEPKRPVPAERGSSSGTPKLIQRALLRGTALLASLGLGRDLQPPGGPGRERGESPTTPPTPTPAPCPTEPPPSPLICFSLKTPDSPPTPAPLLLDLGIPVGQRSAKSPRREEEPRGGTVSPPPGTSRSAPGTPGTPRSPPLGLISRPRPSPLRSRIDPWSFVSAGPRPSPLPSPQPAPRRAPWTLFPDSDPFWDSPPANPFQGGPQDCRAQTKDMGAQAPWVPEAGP
Experiment: radiometric filter-binding kinase assay
Conditions: compound 0.1 µM

| compound | residual activity [%] |
| --- | --- |
| COc1ccc(N(C(=O)Nc2c(C)cccc2C)c2cc(Nc3ccc(N4CCN(C)CC4)cc3)ncn2)c(OC)c1 | 100 |
| Cc1ccc(-c2ccc3c(ccc4sc5c(c43)NC[C@@H](C)NC5=O)n2)cn1 | 114 |
| O=C(N[C@@H](COc1ccc2[nH]c(=O)[nH]c2c1)c1ccccc1)c1cccn(Cc2ccc(F)c(F)c2)c1=O | 104 |
| Cc1cc(NC(=O)c2cccc(NC(=O)/C=C/CN(C)C)c2)ccc1Nc1nccc(-c2cccnc2)n1 | 95 |
| C=CC(=O)N1CCC[C@@H](n2nc(-c3ccc(Oc4ccccc4)cc3)c3c(N)ncnc32)C1 | 87 |
| NC1(c2ccc(-c3nc4ccn5c(=O)[nH]nc5c4cc3-c3ccccc3)cc2)CCC1 | 103 |
| CN1CCN(CCOc2cc(OC3CCOCC3)c3c(Nc4c(Cl)ccc5c4OCO5)ncnc3c2)CC1 | 85 |
| CN(C)C/C=C/C(=O)Nc1cccc(C(=O)Nc2ccc(Nc3nccc(-c4cccnc4)n3)cc2)c1 | 79 |
| O=C(Nc1nc2cc(C(F)(F)F)cc(NC3CC3)n2n1)c1cccnc1 | 104 |
| CNC(=O)C1[C@H]2O[C@@](C)([C@@H]1N)n1c3ccccc3c3c4c(c5c6ccccc6n2c5c31)C(=O)NC4 (some centres undefined) | 5 |
| COc1ccc(-n2ncc3cnc(Nc4cc(OC)c(OC)c(OCCCN5CCN(C)CC5)c4)nc32)cc1 | 15 |
| O=C(NCCCNc1nc(Nc2cccc(CN3CCOCC3)c2)ncc1C1CC1)C1CCC1 | 54 |
| CNc1nc(-c2ccc3c(N)n[nH]c3c2)cc(N2C[C@@H](C(=O)NC3CCCCC3)CC[C@H]2C)n1 | 110 |
| COc1cc(O)c2c(c1)/C=C/C[C@H](O)[C@H](O)C(=O)/C=C\C[C@H](C)OC2=O | 114 |

---

Molecular target: MAP3K9 (human) (UniProt P80192)
Sequence (P80192 whole entry, looked up): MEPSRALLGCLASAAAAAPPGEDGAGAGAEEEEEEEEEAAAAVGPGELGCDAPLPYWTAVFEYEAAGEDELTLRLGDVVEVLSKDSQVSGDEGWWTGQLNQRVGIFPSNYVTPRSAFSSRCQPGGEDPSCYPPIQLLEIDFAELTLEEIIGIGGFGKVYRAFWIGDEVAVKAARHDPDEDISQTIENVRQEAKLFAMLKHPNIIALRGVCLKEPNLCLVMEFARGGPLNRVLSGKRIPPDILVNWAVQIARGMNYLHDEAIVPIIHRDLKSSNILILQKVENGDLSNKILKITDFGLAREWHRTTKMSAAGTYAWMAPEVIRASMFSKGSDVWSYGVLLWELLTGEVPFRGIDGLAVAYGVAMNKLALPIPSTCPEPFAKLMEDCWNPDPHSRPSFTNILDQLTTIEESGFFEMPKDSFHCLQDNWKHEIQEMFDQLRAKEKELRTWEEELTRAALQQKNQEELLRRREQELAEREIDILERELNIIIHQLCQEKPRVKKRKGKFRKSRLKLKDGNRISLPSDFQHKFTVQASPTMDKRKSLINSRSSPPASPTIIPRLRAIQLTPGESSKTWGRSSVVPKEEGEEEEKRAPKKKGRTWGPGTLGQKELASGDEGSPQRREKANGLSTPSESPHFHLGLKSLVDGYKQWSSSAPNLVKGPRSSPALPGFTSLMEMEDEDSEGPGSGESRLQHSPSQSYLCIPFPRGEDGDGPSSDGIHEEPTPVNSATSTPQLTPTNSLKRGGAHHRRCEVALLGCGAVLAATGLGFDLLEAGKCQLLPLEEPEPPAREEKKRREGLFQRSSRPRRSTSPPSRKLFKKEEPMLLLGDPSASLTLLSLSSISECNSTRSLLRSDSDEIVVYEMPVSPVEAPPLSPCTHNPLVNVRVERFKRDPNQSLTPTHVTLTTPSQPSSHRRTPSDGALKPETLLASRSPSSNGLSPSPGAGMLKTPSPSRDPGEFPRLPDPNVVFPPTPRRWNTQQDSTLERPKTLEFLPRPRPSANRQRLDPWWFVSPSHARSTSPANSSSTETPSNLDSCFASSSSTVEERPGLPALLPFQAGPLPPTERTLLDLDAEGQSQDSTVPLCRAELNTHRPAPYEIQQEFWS
Test: radiometric filter-binding kinase assay
Details: compound 0.1 µM
assay-endpoint: residual activity (%)

| compound | subject-of-test | value-observed |
| --- | --- | --- |
| CN(C)C/C=C/C(=O)Nc1cccc(C(=O)Nc2ccc(Nc3nccc(-c4cccnc4)n3)cc2)c1 | MAP3K9 (human) (UniProt P80192) | 72 |
| CN1CCN(CCOc2cc(OC3CCOCC3)c3c(Nc4c(Cl)ccc5c4OCO5)ncnc3c2)CC1 | MAP3K9 (human) (UniProt P80192) | 86 |
| COc1cc(O)c2c(c1)/C=C/C[C@H](O)[C@H](O)C(=O)/C=C\C[C@H](C)OC2=O | MAP3K9 (human) (UniProt P80192) | 109 |
| CC1=C(CO)C(=O)O[C@@H]([C@@H](C)[C@H]2CC[C@H]3[C@@H]4C[C@H]5O[C@]56[C@@H](O)C=CC(=O)[C@]6(C)C4CC[C@]23C)C1 (stereo partly drawn) | MAP3K9 (human) (UniProt P80192) | 91 |
| O=C(NCCCNc1nc(Nc2cccc(CN3CCOCC3)c2)ncc1C1CC1)C1CCC1 | MAP3K9 (human) (UniProt P80192) | 40 |
| c1ccc2c(-c3cnn4cc(-c5ccc(N6CCNCC6)cc5)cnc34)ccnc2c1 | MAP3K9 (human) (UniProt P80192) | 104 |
| CNC(=O)C1[C@H]2O[C@@](C)([C@@H]1N)n1c3ccccc3c3c4c(c5c6ccccc6n2c5c31)C(=O)NC4 (stereo partly drawn) | MAP3K9 (human) (UniProt P80192) | 2 |
| COc1cc(O)c2c(c1)[C@H]1OC1C[C@H](O)[C@H](O)C(=O)/C=C\C[C@H](C)OC2=O (stereo partly drawn) | MAP3K9 (human) (UniProt P80192) | 117 |
| Cc1ccc(-c2ccc3c(ccc4sc5c(c43)NC[C@@H](C)NC5=O)n2)cn1 | MAP3K9 (human) (UniProt P80192) | 99 |
| COc1ccc(N(C(=O)Nc2c(C)cccc2C)c2cc(Nc3ccc(N4CCN(C)CC4)cc3)ncn2)c(OC)c1 | MAP3K9 (human) (UniProt P80192) | 97 |
| CCn1c(-c2nonc2N)nc2cncc(CNC3CCNCC3)c21 | MAP3K9 (human) (UniProt P80192) | 105 |
| C=CC(=O)N1CCC[C@@H](n2nc(-c3ccc(Oc4ccccc4)cc3)c3c(N)ncnc32)C1 | MAP3K9 (human) (UniProt P80192) | 104 |
| NC(=O)c1cc2c(-c3cccc(-c4ccccc4)c3)cnc(N)c2s1 | MAP3K9 (human) (UniProt P80192) | 54 |
| NC1(c2ccc(-c3nc4ccn5c(=O)[nH]nc5c4cc3-c3ccccc3)cc2)CCC1 | MAP3K9 (human) (UniProt P80192) | 110 |
| CNc1nc(-c2ccc3c(N)n[nH]c3c2)cc(N2C[C@@H](C(=O)NC3CCCCC3)CC[C@H]2C)n1 | MAP3K9 (human) (UniProt P80192) | 111 |
| CCCCCc1ccc(/C=C/[C@H](O)[C@@H](CO)NC)cc1 | MAP3K9 (human) (UniProt P80192) | 105 |
| Cc1cc(NC(=O)c2cccc(NC(=O)/C=C/CN(C)C)c2)ccc1Nc1nccc(-c2cccnc2)n1 | MAP3K9 (human) (UniProt P80192) | 98 |
| Cc1cccc(-c2nn(C(=S)Nc3ccccc3)cc2-c2ccnc3ccccc23)n1 | MAP3K9 (human) (UniProt P80192) | 96 |
| O=C(Nc1nc2cc(C(F)(F)F)cc(NC3CC3)n2n1)c1cccnc1 | MAP3K9 (human) (UniProt P80192) | 80 |
| O=C(O)c1ccc(-c2c[nH]c3ncc(-c4ccccc4)cc23)cc1C1CCCC1 | MAP3K9 (human) (UniProt P80192) | 87 |
| O=C(N[C@@H](COc1ccc2[nH]c(=O)[nH]c2c1)c1ccccc1)c1cccn(Cc2ccc(F)c(F)c2)c1=O | MAP3K9 (human) (UniProt P80192) | 119 |
| Cc1ccc(Sc2cnc(Nc3cccc(Br)n3)s2)cc1C(=O)N1CCN(C(=O)CN)CC1 | MAP3K9 (human) (UniProt P80192) | 78 |
| COc1ccc(-n2ncc3cnc(Nc4cc(OC)c(OC)c(OCCCN5CCN(C)CC5)c4)nc32)cc1 | MAP3K9 (human) (UniProt P80192) | 7 |
